I'd be grateful if you could share measured neutralization IC50 for these entries.
- TGT: Env of HIV-1 strain 3415.v1.c1 (HIV-1)
- PROCEDURE_SUMMARY: cell-based or functional assay

## Input Which neutralization IC50 value is on record for γ23κ11 (antibody, V domains shown) VH: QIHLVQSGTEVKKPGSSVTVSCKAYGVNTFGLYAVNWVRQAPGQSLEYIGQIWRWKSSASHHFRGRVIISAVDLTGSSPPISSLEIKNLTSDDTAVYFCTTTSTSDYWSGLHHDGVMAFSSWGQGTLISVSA VL: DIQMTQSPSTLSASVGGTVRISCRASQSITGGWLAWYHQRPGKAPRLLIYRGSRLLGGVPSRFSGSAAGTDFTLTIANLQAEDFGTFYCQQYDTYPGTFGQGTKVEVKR ?
## Output > 15 mg/L

## Input Which neutralization IC50 value is on record for γ46κ11 (antibody, V domains shown) VH: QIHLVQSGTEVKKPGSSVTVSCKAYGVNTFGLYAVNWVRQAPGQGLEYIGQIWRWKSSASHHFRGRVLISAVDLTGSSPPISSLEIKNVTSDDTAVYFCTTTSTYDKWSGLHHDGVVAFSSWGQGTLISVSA VL: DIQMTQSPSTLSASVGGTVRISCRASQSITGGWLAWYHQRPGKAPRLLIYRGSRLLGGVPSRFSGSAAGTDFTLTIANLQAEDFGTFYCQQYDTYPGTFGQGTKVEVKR ?
## Output > 15 mg/L

## Input Which neutralization IC50 value is on record for γ20κ11 (antibody, V domains shown) VH: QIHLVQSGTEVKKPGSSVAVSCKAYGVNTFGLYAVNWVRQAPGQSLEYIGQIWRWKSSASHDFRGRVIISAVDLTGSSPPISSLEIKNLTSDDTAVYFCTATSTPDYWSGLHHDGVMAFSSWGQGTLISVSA VL: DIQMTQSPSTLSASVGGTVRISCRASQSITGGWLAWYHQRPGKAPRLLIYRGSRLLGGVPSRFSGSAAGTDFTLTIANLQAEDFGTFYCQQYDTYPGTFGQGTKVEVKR ?
## Output > 15 mg/L

## Input Which neutralization IC50 value is on record for γ3κ3 (antibody, V domains shown) VH: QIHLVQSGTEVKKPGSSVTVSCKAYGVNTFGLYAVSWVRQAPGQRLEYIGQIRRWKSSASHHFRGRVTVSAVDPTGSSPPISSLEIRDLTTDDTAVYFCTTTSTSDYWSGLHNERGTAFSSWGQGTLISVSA VL: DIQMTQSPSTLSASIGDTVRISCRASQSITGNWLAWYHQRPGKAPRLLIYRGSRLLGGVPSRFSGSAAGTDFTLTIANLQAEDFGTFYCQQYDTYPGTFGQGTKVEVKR ?
## Output > 15 mg/L

## Input Which neutralization IC50 value is on record for γ59κ3 (antibody, V domains shown) VH: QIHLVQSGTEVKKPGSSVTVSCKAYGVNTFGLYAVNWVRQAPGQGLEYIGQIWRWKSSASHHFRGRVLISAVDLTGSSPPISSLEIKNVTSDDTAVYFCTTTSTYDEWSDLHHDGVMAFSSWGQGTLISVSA VL: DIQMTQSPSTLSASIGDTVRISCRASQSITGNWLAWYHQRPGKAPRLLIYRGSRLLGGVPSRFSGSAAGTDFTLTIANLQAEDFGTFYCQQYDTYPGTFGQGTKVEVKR ?
## Output > 15 mg/L

## Input Which neutralization IC50 value is on record for γ15κ11 (antibody, V domains shown) VH: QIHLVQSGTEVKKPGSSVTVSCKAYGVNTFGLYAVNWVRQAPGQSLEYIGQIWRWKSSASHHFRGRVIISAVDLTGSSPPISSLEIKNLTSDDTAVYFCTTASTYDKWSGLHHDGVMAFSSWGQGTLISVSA VL: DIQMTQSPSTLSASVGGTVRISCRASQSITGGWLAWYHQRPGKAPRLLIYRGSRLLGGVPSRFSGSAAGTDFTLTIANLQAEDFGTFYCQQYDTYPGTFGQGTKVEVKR ?
## Output > 15 mg/L

## Input Which neutralization IC50 value is on record for 8ANC195 IgG (antibody, V domains shown) VH: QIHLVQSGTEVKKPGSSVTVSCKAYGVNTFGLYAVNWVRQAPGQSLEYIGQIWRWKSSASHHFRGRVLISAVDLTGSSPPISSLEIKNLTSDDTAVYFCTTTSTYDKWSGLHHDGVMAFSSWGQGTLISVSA VL: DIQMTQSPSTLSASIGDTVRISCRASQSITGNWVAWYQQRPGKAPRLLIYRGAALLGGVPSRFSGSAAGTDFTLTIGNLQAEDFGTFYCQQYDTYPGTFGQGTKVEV ?
## Output 2.4 mg/L

## Input Which neutralization IC50 value is on record for γ15κ18 (antibody, V domains shown) VH: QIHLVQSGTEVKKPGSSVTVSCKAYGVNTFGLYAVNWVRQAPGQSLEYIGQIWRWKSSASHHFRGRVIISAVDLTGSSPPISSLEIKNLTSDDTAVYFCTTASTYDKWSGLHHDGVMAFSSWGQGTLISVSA VL: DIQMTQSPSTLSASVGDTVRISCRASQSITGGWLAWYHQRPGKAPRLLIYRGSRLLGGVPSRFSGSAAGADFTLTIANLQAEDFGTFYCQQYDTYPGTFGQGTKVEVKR ?
## Output > 15 mg/L

## Input Which neutralization IC50 value is on record for γ8κ11 (antibody, V domains shown) VH: QIHLVQSGTGVKKPGSSVTVSCKAYGVNTFGLYAVNWVRQAPGQGLEYIGQIWRWKSSASHHFRGRVLISAVDLTGSSPPITSLEIKNVTSDDTAVYFCTTTSTYDKWSGLYHDGVMAFSSWGQGTLISVSA VL: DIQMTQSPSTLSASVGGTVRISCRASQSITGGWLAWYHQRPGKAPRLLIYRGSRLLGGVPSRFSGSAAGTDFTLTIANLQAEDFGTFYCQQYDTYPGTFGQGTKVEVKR ?
## Output > 15 mg/L

## Input Which neutralization IC50 value is on record for 8ANC3484 (antibody, V domains shown) VH: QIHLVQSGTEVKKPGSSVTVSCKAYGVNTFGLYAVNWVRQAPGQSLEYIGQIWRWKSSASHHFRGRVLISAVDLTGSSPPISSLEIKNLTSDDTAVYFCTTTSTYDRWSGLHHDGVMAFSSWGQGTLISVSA VL: DIQMTQSPSTLSASIGDTVRISCRASQSITGNWVAWYQQRPGKAPRLLIYRGAALLGGVPSRFRGSAAGTDFTLTIGNLQAEDFGTFYCQQYDTYPGTFGQGTKVEVKR ?
## Output 0.589 mg/L
